As shown below, each of these sequences has a reported PBM binding z-score value.
system: RXRa DBDmut IVT, anti-RXR (DBD mutation: RXRa K156A/R161A, NR concentration 90 nM); assay: PBM binding z-score (relative to random genomic background probes); higher = stronger binding; sequences stand for … in GC…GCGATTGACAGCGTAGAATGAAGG
endpointLabel: PBM binding z-score

- CCTTACGGGTCACTGACAGGTTATCGCATTTGGA: 1.9
- CCAGACAGGTTAAAGGTAACTCAGTCTGGTACGC: 0.388
- TCTAGTTGGTCACGGAGGTCAAACACGACGGGTA: 1.28
- CAGCCGAGGTCAGGGCCAGTATAGGAGGAACGTT: 2.15
- TCTTGTACATCAAGCAGGTTAAGAAAGCCTGAGT: 0.896
- CGTCAAAGTTCAACTAACGTAACGTAAAGCACGC: 4.56
